# assay-system: M2 protein of A/Hong Kong/483/1997, expressed on cells (Influenza A virus A/Hong Kong/483/1997 (H5N1))
Quick reference for FACS M2-HK MFI among some binders
Provide a numeric answer, followed by its unit.

3139_P23 (antibody, V domains shown) VH: QVQLQESGPRLVKPSESLSLTCTVSGGSISNSFWGWIRQPPGEGLEWIGYVYNSGNTKYNPSLKSRVTISRDTSKSQLYMKLRSVTAADTAVYYCARHDDASHGYSISWGHGTLVTVSS VL: DIQMTQSPSSLSASVGDRVTITCRASQTISTYLNWYQQKSGKAPKLLIYAASGLQSGVPSRFSGSGSGTDFTLTISSLQPEDFATYFCQQSYNTPLTFGQGTKVEIK    110 MFI
3244_H04 (antibody, V domains shown) VH: EVQLVESGGGLVQPGGSLRLSCTASGLSVSSTYMNWVRQAPGKGLEWVSVFYSETRTYYADSVKGRFTVSRHNSNNTLYLQMNSLRAEDTAVYYCARVQRLSYGMDVWGQGTTVTVSS VL: DIQMTQSPSSLSASVGDRVTITCRASQSISTYLNWYQKRPGKAPKLLVYGASSLQSGVPSRFSGSGSGTDFTLTIASLQPEDSAVYYCQQTYSIPLFGQGTRLEIK    963 MFI

Attention now turns to another entry.
Query: Fill blank: measured FACS M2-HK MFI of the binder 3248_P18 (antibody, V domains shown) VH: QVQLQESGPGLVKPSETLSLTCTVSGGSISAYHWSWIRQPPGKGLEWIGHIFDSGSTYYNPSLKSRVTISLDASKNQLSLRLTSVTASDTAIYYCARPLGSRYYYGMDVWGQGTTVTVSS VL: DIQMTQSPSSLSASVGDRVTITCRASQSISRYLNWYQQKPGKAPKLLIYGASTLQNGAPSRFSGSGSGTDFTLTISSLQPEDSATYLCQQSYSVPAFGGGTKVEVK is ____.
Result: 967 MFI
